- System: T1, human CD3 on T-cell lines (CD3-expressing Jurkat cells; HUT78 cells) (human, UniProt P07766 23-207)
- T1 construct: On cells it stands in the CD3/TCR complex
- T1 sequence (P07766 23-207 limits assumed): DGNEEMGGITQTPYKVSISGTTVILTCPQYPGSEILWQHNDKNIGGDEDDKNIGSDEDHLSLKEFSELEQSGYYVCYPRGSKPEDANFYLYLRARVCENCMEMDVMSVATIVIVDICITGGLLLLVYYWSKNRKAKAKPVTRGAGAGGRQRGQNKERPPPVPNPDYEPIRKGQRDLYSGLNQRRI
- Assay Notes: flow cytometry, HUT78 cells
For each of the binders below, state its log10 Kd.
Values are log10 of Kd in nM.

Inquiry: Form field: reported log10 Kd of 2037-B10_Hc-A59D (antibody, human IgG1, lambda, V domains shown, human IgG1, lambda; also called SRP 2037 A59D; 2037-B10_VH-A59D) VH: EVQLVESGGGLVKPGGSLRLSCAASGFTFNKYAMNWVRQAPGKGLEWVARIRTKYNNYDTYYADSVKDRFTISRDDSKNTAYLQMNSLKTEDTAVYYCVRHGNFGNSYISYWAYWGQGTPVTVSS VL: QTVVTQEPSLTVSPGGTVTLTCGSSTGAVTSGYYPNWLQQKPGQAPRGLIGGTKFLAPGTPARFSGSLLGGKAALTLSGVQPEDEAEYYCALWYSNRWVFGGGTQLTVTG
Reply text: -1.15

Inquiry: Form field: reported log10 Kd of 2037-B10_Hc-N106D (antibody, human IgG1, lambda, V domains shown, human IgG1, lambda; also called SRP 2037 N106D; 2037-B10_VH-N106D) VH: EVQLVESGGGLVKPGGSLRLSCAASGFTFNKYAMNWVRQAPGKGLEWVARIRTKYNNYATYYADSVKDRFTISRDDSKNTAYLQMNSLKTEDTAVYYCVRHGNFGDSYISYWAYWGQGTPVTVSS VL: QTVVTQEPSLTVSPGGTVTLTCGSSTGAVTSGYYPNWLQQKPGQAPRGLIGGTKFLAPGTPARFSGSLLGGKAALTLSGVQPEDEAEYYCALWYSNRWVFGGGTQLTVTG
Reply text: -0.59

Inquiry: Form field: reported log10 Kd of 2037-B10_Hc-Y108D (antibody, human IgG1, lambda, V domains shown, human IgG1, lambda; also called 2037-B10_VH-Y108D) VH: EVQLVESGGGLVKPGGSLRLSCAASGFTFNKYAMNWVRQAPGKGLEWVARIRTKYNNYATYYADSVKDRFTISRDDSKNTAYLQMNSLKTEDTAVYYCVRHGNFGNSDISYWAYWGQGTPVTVSS VL: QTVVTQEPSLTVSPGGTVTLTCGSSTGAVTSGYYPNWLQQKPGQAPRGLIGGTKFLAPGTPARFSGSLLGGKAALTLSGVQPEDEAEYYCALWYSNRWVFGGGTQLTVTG
Reply text: -0.92

Inquiry: Form field: reported log10 Kd of 2037-B10_Hc-R52D (antibody, human IgG1, lambda, V domains shown, human IgG1, lambda; also called SRP 2037 R52D; 2037-B10_VH-R52D) VH: EVQLVESGGGLVKPGGSLRLSCAASGFTFNKYAMNWVRQAPGKGLEWVARIDTKYNNYATYYADSVKDRFTISRDDSKNTAYLQMNSLKTEDTAVYYCVRHGNFGNSYISYWAYWGQGTPVTVSS VL: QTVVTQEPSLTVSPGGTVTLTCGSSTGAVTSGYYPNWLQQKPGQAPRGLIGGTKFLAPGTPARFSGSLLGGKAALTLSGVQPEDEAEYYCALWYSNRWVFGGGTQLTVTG
Reply text: 1.15

Inquiry: Form field: reported log10 Kd of 2037-B10_Hc-Y61D (antibody, human IgG1, lambda, V domains shown, human IgG1, lambda; also called SRP 2037 Y61D; 2037-B10_VH-Y61D) VH: EVQLVESGGGLVKPGGSLRLSCAASGFTFNKYAMNWVRQAPGKGLEWVARIRTKYNNYATDYADSVKDRFTISRDDSKNTAYLQMNSLKTEDTAVYYCVRHGNFGNSYISYWAYWGQGTPVTVSS VL: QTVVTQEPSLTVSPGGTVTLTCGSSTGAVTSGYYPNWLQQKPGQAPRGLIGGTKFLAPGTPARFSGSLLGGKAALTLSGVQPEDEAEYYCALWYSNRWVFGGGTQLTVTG
Reply text: -0.49

Inquiry: Form field: reported log10 Kd of 2037-B10_Hc-F29D (antibody, human IgG1, lambda, V domains shown, human IgG1, lambda; also called SRP 2037 F29D; 2037-B10_VH-F29D) VH: EVQLVESGGGLVKPGGSLRLSCAASGFTDNKYAMNWVRQAPGKGLEWVARIRTKYNNYATYYADSVKDRFTISRDDSKNTAYLQMNSLKTEDTAVYYCVRHGNFGNSYISYWAYWGQGTPVTVSS VL: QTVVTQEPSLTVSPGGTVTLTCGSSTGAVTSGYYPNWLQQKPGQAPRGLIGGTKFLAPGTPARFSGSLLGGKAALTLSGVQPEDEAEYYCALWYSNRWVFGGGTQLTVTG
Reply text: 0.27

Inquiry: Form field: reported log10 Kd of 2037-B10_Hc-N30D (antibody, human IgG1, lambda, V domains shown, human IgG1, lambda; also called SRP 2037 N30D; 2037-B10_VH-N30D) VH: EVQLVESGGGLVKPGGSLRLSCAASGFTFDKYAMNWVRQAPGKGLEWVARIRTKYNNYATYYADSVKDRFTISRDDSKNTAYLQMNSLKTEDTAVYYCVRHGNFGNSYISYWAYWGQGTPVTVSS VL: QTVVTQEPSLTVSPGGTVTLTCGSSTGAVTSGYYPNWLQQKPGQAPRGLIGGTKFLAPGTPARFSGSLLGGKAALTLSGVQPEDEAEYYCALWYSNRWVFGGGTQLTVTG
Reply text: -0.66

Inquiry: Form field: reported log10 Kd of 2037-B10_Hc-S107D (antibody, human IgG1, lambda, V domains shown, human IgG1, lambda; also called SRP 2037 S107D; 2037-B10_VH-S107D) VH: EVQLVESGGGLVKPGGSLRLSCAASGFTFNKYAMNWVRQAPGKGLEWVARIRTKYNNYATYYADSVKDRFTISRDDSKNTAYLQMNSLKTEDTAVYYCVRHGNFGNDYISYWAYWGQGTPVTVSS VL: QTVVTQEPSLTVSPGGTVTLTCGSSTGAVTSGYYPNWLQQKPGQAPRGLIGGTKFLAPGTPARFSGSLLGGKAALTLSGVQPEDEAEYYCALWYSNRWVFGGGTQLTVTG
Reply text: 0.24

Inquiry: Form field: reported log10 Kd of 2037-B10_Hc-G105D (antibody, human IgG1, lambda, V domains shown, human IgG1, lambda; also called SRP 2037 G105D; 2037-B10_VH-G105D) VH: EVQLVESGGGLVKPGGSLRLSCAASGFTFNKYAMNWVRQAPGKGLEWVARIRTKYNNYATYYADSVKDRFTISRDDSKNTAYLQMNSLKTEDTAVYYCVRHGNFDNSYISYWAYWGQGTPVTVSS VL: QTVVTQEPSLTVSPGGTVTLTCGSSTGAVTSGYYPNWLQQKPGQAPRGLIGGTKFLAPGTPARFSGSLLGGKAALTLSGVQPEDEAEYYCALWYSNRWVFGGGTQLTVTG
Reply text: -0.44

Inquiry: Form field: reported log10 Kd of 2037-B10_Hc-N56D (antibody, human IgG1, lambda, V domains shown, human IgG1, lambda; also called SRP 2037 N56D; 2037-B10_VH-N56D) VH: EVQLVESGGGLVKPGGSLRLSCAASGFTFNKYAMNWVRQAPGKGLEWVARIRTKYDNYATYYADSVKDRFTISRDDSKNTAYLQMNSLKTEDTAVYYCVRHGNFGNSYISYWAYWGQGTPVTVSS VL: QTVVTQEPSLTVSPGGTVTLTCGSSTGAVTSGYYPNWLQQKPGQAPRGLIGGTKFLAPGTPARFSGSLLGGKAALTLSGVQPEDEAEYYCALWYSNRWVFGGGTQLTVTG
Reply text: 1.44

Value source: patent US20240124585A1
